- target.or.system: KRAS G12V (Homo sapiens, UniProt P01116, G12V)
- Sequence (P01116 1-188 isoform P01116-2 G12V): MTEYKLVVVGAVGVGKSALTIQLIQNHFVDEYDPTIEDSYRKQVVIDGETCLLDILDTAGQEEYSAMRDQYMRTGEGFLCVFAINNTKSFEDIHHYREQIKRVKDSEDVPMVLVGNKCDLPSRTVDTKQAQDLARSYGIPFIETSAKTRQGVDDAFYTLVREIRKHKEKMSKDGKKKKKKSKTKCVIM
- experiment.summary: GDP-GTP exchange assay, KRAS G12V (bodipy-GDP/GppNHp, SOS1)
- run.conditions: bodipy-loaded KRAS G12V 2.5 nM, 3 hours pre-incubation with inhibitor, SOS1 150 nM, GppNHp 500 uM; read-out: G12V_exchange (KRAS_G12V exchange assay IC50)
measure: IC50

Use the examples below as a reference point.
compound	IC50
N#CCCc1cc2c3c(c(-c4ccc5cccnc5c4)nc2c(F)c1-c1cc(O)cc2ccccc12)NC(=O)CN3C1C2CNC1C2 (single isomer, unassigned) [Example 6b]	1 to 5 µM
N#CCCc1cc2c3c(c(OC[C@@]45CCCN4C[C@H](F)C5)nc2c(F)c1-c1cc(O)cc2ccccc12)NC(=O)CN3C1C2CNC1C2 (single isomer, unassigned) [Example 10b]	≤ 0.1 µM
CC1Cc2c(OC[C@@H]3CCCN3C)nc3c(F)c(-c4cc(O)cc5ccccc45)c(CCC#N)cc3c2N(C2C3CNC2C3)C1 (single isomer, unassigned) [Example 14b]	≤ 0.1 µM
C[C@H](Oc1nc2c(F)c(-c3cc(O)cc4ccc(F)cc34)c(CCC#N)cc2c2c1NC(=O)CN2C1C2CNC1C2)[C@@H]1CCCN1C (single isomer, unassigned) [Example 4d]	0.1 to 1 µM

Problem: GET IC50 | system: KRAS G12V (Homo sapiens, UniProt P01116, G12V) | item: C[C@H](Oc1nc2c(F)c(-c3cccc(Cl)c3Cl)c(CCC#N)cc2c2c1c(=O)c(-c1cnn(C)c1)cn2[C@H]1[C@H]2CN[C@@H]1C2)[C@@H]1CCCN1C (single isomer, unassigned) [Example 24a]
Result: ≤ 0.1 µM

Problem: Quote IC50 with test system KRAS G12V (Homo sapiens, UniProt P01116, G12V) for C[C@@H](CN(C)C)Oc1nc2c(F)c(-c3cc(O)cc4ccccc34)c(CCC#N)cc2c2c1NC(=O)CN2C1C2CNC1C2 (single isomer, unassigned) [Example 11d]
Result: 0.1 to 1 µM

Problem: System KRAS G12V (Homo sapiens, UniProt P01116, G12V). Read-out IC50. Item C[C@H](Oc1nc2c(F)c(-c3cccc4ccc(F)cc34)c(CCC#N)cc2c2c1NC(=O)CN2C1C2CNC1C2)[C@@H]1CCCN1C (single isomer, unassigned) [Example 3a] . Report value.
Result: ≤ 0.1 µM

Problem: Write IC50 of C[C@@H](CN(C)C)Oc1nc2c(F)c(-c3cc(O)cc4ccccc34)c(CCC#N)cc2c2c1CCCN2C1C2CNC1C2 (single isomer, unassigned) [Example 16a] ; system used: KRAS G12V (Homo sapiens, UniProt P01116, G12V)
Result: 5 to 10 µM

Problem: Output reported IC50 of the compound N#CCCc1cc2c3c(c(OC[C@@]45CCCN4C[C@H](F)C5)nc2c(F)c1-c1cc(O)cc2ccccc12)NC(=O)CN3C1C2CNC1C2 (single isomer, unassigned) [Example 10d] on KRAS G12V (Homo sapiens, UniProt P01116, G12V).
Result: 5 to 10 µM

Problem: Give IC50 for C[C@H](Oc1nc2c(F)c(-c3cccc4ccc(F)cc34)c(CCC#N)cc2c2c1NC(=O)CN2C1C2CNC1C2)[C@@H]1CCCN1C (single isomer, unassigned) [Example 3b] tested on KRAS G12V (Homo sapiens, UniProt P01116, G12V).
Result: 0.1 to 1 µM

###

- target.or.system: KRAS G12D (Homo sapiens, UniProt P01116, G12D)
- Sequence (P01116 1-188 isoform P01116-2 G12D): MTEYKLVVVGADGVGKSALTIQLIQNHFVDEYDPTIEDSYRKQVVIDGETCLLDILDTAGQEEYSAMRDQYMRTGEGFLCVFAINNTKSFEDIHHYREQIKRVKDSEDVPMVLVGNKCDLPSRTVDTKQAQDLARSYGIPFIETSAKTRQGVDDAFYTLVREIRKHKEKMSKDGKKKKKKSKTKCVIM
- experiment.summary: KRAS_G12D pERK assay (cellular pERK HTRF assay)
- Assay type: cell-based
- Design: host or cells: A427 or HPAF-II
- run.conditions: KRAS G12D cells (A427, HPAF-II named in method), 2 hours incubation, Phospho-ERK 1/2 HTRF; read-out: G12D_PERK (KRAS_G12D pERK assay IC50)
measure: IC50

molecule	measure	recorded.measurement
CC1Cc2c(OC[C@@H]3CCCN3C)nc3c(F)c(-c4cc(O)cc5ccccc45)c(CCC#N)cc3c2N(C2C3CNC2C3)C1 (single isomer, unassigned) [Example 14a]	IC50	100 to 1000 nM
C[C@H](Oc1nc2c(F)c(-c3cccc(Cl)c3Cl)c(CCC#N)cc2c2c1NC(=O)CN2C1C2CNC1C2)[C@@H]1CCCN1C (single isomer, unassigned)	IC50	100 to 1000 nM
C[C@H](Oc1nc2c(F)c(-c3cccc(Cl)c3Cl)c(CCC#N)cc2c2c1c(=O)c(-c1cnn(C)c1)cn2[C@H]1[C@H]2CN[C@@H]1C2)[C@@H]1CCCN1C (single isomer, unassigned) [Example 24b]	IC50	100 to 1000 nM

# evaluate next
Problem: Specify IC50 for CNC(=O)c1ccc(-c2nc3c(F)c(-c4cc(O)cc5ccccc45)c(CCC#N)cc3c3c2NC(=O)CN3C2C3CNC2C3)cn1 (single isomer, unassigned) and stop.
Result: 5000 to 10000 nM
